- system-tested: EP2 receptor (Homo sapiens)
- Construct: purchased Merck HTS185M
- Sequence (P43116 whole entry): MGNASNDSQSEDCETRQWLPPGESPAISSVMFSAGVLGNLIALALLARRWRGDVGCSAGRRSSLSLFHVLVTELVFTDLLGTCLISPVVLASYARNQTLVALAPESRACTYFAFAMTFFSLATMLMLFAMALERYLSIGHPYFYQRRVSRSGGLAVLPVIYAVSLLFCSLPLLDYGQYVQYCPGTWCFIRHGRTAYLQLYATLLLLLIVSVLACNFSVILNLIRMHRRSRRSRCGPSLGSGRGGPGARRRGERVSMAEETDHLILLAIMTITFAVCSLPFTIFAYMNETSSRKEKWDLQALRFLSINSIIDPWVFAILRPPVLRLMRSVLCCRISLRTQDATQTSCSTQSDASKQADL
- procedure-summary: Competitive binding to EP2 receptor against radiolabeled ligand 3H-PGE2
- settings: 8 concentrations from 10 µM, 10-fold dilutions
quantity-name: binding to the EP2 receptor (competition with 3H-PGE2)

CCCCC[C@H](O)CC[C@@H]1[C@H]2Cc3cccc(OCC(=O)OCCCCCCOCCCCc4ccccc4)c3C[C@H]2C[C@H]1O [Compound Ia-1] ... no detectable binding
CCCCC[C@H](O)CC[C@@H]1[C@H]2Cc3cccc(OCC(=O)OCCCCCCCCCCOCCCCc4ccccc4)c3C[C@H]2C[C@H]1O [Compound Ia-3] ... no detectable binding
CCCCC[C@H](O)CC[C@@H]1[C@H]2Cc3cccc(OCC(=O)OCCCCCCCCOCCCCc4ccccc4)c3C[C@H]2C[C@H]1O [Compound Ia-2] ... no detectable binding

====

- system-tested: IP receptor (Homo sapiens)
- Construct: host or cells: HEK293 (IP/HEK293 cell line)
- Sequence (P43119 whole entry): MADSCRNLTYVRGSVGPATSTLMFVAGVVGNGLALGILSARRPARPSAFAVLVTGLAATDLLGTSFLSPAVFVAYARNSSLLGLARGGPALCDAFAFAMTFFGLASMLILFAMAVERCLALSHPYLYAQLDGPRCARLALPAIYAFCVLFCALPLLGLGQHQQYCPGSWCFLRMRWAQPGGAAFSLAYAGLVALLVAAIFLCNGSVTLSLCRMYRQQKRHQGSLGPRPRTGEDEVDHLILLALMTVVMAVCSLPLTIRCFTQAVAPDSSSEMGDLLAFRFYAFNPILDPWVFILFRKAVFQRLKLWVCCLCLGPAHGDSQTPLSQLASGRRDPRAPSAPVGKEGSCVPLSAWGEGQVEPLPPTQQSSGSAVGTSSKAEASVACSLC
- procedure-summary: In-vitro agonist activity on IP receptor, FLIPR calcium test in IP/HEK293 cells
- Type: cell-based
- settings: 10 concentrations, 10-fold dilutions
quantity-name: agonist activity on IP receptor

CCCCC[C@H](O)CC[C@@H]1[C@H]2Cc3cccc(OCC(=O)OCCCCCCOCCCCc4ccccc4)c3C[C@H]2C[C@H]1O ... no agonist activity
CCCCC[C@H](O)CC[C@@H]1[C@H]2Cc3cccc(OCC(=O)OCCCCCCCCOCCCCc4ccccc4)c3C[C@H]2C[C@H]1O ... no agonist activity
CCCCC[C@H](O)CC[C@@H]1[C@H]2Cc3cccc(OCC(=O)OCCCCCCCCCCOCCCCc4ccccc4)c3C[C@H]2C[C@H]1O ... no agonist activity
